Test system: Leishmania donovani
Experiment: microbe, parasite or virus in culture
Format: functional
Details: 1S-C12d
Description: Antileishmanial activity against Leishmania donovani MHOM/SD/1962/1S-C12d axenic amastigotes by alamar blue viability assay
measure: GI50 (nM)
Respond numerically; units are nM and should not be typed.

Dear colleague, I am looking for the recorded GI50 of the following compound: CC(C)(C)c1ccc2[nH]c3c(c2c1)CC(=O)Nc1ccc(C#Cc2ccccc2)cc1-3 860

Need GI50, item CC(C)(C)c1ccc2[nH]c3c(c2c1)CC(=O)Nc1ccc(/C=C/C(=O)c2ccc(O)cc2)cc1-3 3000

Which GI50 is reported for this compound? COc1ccc(C(=O)/C=C/c2ccc3c(c2)-c2[nH]c4ccc(C(C)(C)C)cc4c2CC(=O)N3)cc1 1200

Returns the measured GI50 for the input compound. Input: CC(=O)/C=C/c1ccc2c(c1)-c1[nH]c3ccccc3c1CC(=O)N2 3400

GI50 lookup needed for CC(C)(C)c1ccc2[nH]c3c(c2c1)CC(=O)Nc1ccc(/C=C/C(=O)c2ccccc2)cc1-3 , thanks. 1100

If you can, please state the reported GI50 value of CC(=O)/C=C/c1ccc2c(c1)-c1[nH]c3ccc(C)cc3c1CC(=O)N2 . 12000

Tell me the measured GI50 of COc1ccc(C(=O)/C=C/c2ccc3c(c2)-c2[nH]c4ccc(C(C)(C)C)cc4c2CC(=O)N3)c(OC)c1 , please. 840

Query (compound): COc1ccc(C(=O)/C=C/c2ccc3c(c2)-c2[nH]c4ccc(C(C)(C)C)cc4c2CC(=O)N3)cc1OC ; field requested: GI50 1000

# GI50 lookup, item O=C1Cc2c([nH]c3ccccc23)-c2cc(/C=C/C(=O)c3ccccc3)ccc2N1 5000

State the recorded GI50 for this entry: CC(C)(C)c1ccc2[nH]c3c(c2c1)CC(=O)Nc1ccc(/C=C/C(=O)c2ccco2)cc1-3 760

Recorded GI50 of CC(C)(C)c1ccc2[nH]c3c(c2c1)CC(=O)Nc1ccc(/C=C/C(=O)c2cccnc2)cc1-3 , please. 780

Param item = CC(C)(C)c1ccc2[nH]c3c(c2c1)CC(=O)Nc1ccc(/C=C/C#N)cc1-3 ; retrieve measured GI50. 3600

For the compound COc1cc(C(=O)/C=C/c2ccc3c(c2)-c2[nH]c4ccc(C(C)(C)C)cc4c2CC(=O)N3)cc(OC)c1OC , what GI50 is on record? 1100

Item CC(=O)/C=C/c1ccc2c(c1)-c1[nH]c3ccc(C(C)(C)C)cc3c1CC(=O)N2 has what recorded GI50? 2800

What value of measured GI50 is listed for COc1ccc(OC)c(C(=O)/C=C/c2ccc3c(c2)-c2[nH]c4ccc(C(C)(C)C)cc4c2CC(=O)N3)c1 ? 1100

# get_value(readout='GI50', item= CC(C)(C)c1ccc2[nH]c3c(c2c1)CC(=O)Nc1ccc(/C=C/C(=O)c2cccs2)cc1-3 ) 1000

Item CC(C)(C)c1ccc2[nH]c3c(c2c1)CC(=O)Nc1ccc(/C=C/C(=O)c2ccc(Cl)cc2)cc1-3 has what recorded GI50? 1200

* * *

Experiment: Inhibition of fumarate reductase in crude mitochondria fraction of Leishmania major promastigotes
measure: pIC50
Field pIC50 (float): negative decimal logarithm of the concentration in molar.

What does the data say about its pIC50? Entry: C=CC(C)(C)c1cc(/C=C/C(=O)c2ccc(O)cc2)c(OC)cc1O 5.85
